Source listed as ChEMBL document CHEMBL4265875.

- Assay text: Half life in fasted rat at 5 mg/kg administered as single dose by orogastric gavage by LC-MS/MS analysis
- Format: ADME, organism-based
- Assay context: in vivo, po
Result type: half-life

Would you mind telling me what half-life value was observed for Cc1csc(-c2nnc(Nc3ccc(Oc4ncccc4-c4ccnc(N)n4)cc3)c3ccccc23)c1 [AMG-900] ?
0.6 to 2.4 h

###

- System: CAL-85-1
- Assay text: Antiproliferation activity against human CAL851 cells assessed as inhibition of cell proliferation
- Format: functional, cell-based
Result type: pIC50
Bear in mind: pIC50 is minus log10 of a mol/L concentration; give just that figure.

Which pIC50 value is on record for `O=C(O)[C@]1(Cc2cccc(Nc3nccs3)n2)CC[C@@H](Oc2cccc(Cl)c2F)CC1` ?
6.13

###

- Assay text: Suppression of cell mitosis in human multiple myeloma cells
- Assay type: functional
Result type: IC50

IC50 lookup needed for `COc1cc(Nc2ncc3c(n2)-c2ccc(Cl)cc2C(c2c(F)cccc2OC)=NC3)ccc1C(=O)O` , thanks.
3 to 1710 nM

###

- Assay text: Inhibition of CYP450 (unknown origin)
- Type: ADME, Homo sapiens
Result type: IC50

Which IC50 is listed for `Cc1cc(CN2CCN(c3c(Br)cnc4nc(-c5ccc(N6CCN(C)CC6)cc5)[nH]c34)CC2)no1` ?
> 10 µM

###

- Experimental target: Aurora kinase B (Homo sapiens)
- Assay text: Inhibition of aurora B in human MDA-MB-231 cells assessed as reduction in enzyme autophosphorylation incubated for 4 hrs by high-content immunofluorescence imaging
- Assay type: cell-based
Result type: IC50 (µM)
Give just the number in µM; leave the unit off.

Under Aurora kinase B (Homo sapiens): IC50 value of `CC(=O)NCC(=O)N1[C@@H]2CC[C@H]1c1ccc(Nc3ncc(C(F)(F)F)c(NC4CCC4)n3)cc12` ?
0.011

###

- Experimental target: Aurora kinase B (Homo sapiens)
- Assay text: Inhibition of recombinant aurora B (unknown origin)
Measured pIC50 of individual entries
// returns pIC50 (minus log10 of molar concentration), number only

>  <Smiles notation>
Cc1csc(-c2nnc(Nc3ccc(Oc4ncccc4-c4ccnc(N)n4)cc3)c3ccccc23)c1

>  <pIC50>
8.40

$$$$

Now examine the next entry.
Returns the measured pIC50 for the input molecule. Input: `COc1cc2c(Nc3ccc(C(=O)Nc4ccccc4)cc3)ncnc2cc1O`
7.39

###

- Assay text: Half life in tumor of mouse xenografted with human HCT116 cells at 15 to 20 mg/kg
- Format: ADME, organism-based, Neoplasm
Result type: half-life (h)
Give your result in h as a bare value.

Request the reported half-life associated with `O=C(Nc1c[nH]nc1-c1nc2ccc(CN3CCOCC3)cc2[nH]1)NC1CC1`
2.5

###

- Assay text: Plasma concentration in F344/N Jcl-rnu rat xenografted with luciferase expressing human HeLa cells at 32 mg/kg, po BID for 2 days
- Assay type: ADME, organism-based
Result type: concentration at 48 h

Quick one: concentration at 48 h of `O=C(O)[C@]1(Cc2cccc(Nc3nccs3)n2)CC[C@@H](Oc2cccc(Cl)c2F)CC1` ?
4.4 µM

###

- System: HeLa
- Assay text: Growth inhibition of human HeLa cells by XTT assay
- Format: functional, cell-based
Result type: IC50 (nM)
Respond numerically; units are nM and should not be typed.

Record lookup: for HeLa, what IC50 belongs to `CCN1CCN(C(=O)Cc2ccc(Nc3ncc(F)c(Nc4ccc(C(=O)Nc5ccccc5Cl)cc4)n3)cc2)CC1` ?
416

###

- Tested on: HCT-116
- Assay text: Growth inhibition of human HCT116 cells by XTT assay
- Format: functional, cell-based
Result type: IC50

I am curious: what IC50 value has been reported for `CCN1CCN(C(=O)Cc2ccc(Nc3ncc(F)c(Nc4ccc(C(=O)Nc5ccccc5Cl)cc4)n3)cc2)CC1` ?
190 to 378 nM

###

- Assay text: Inhibition of Xenopus laevis aurora B (60 to 361 residues)/INCENP
Result type: pIC50
Conceptually, pIC50 converts a concentration in mol/L into minus its log10.

# get_value(readout='pIC50', item= CCS(=O)(=O)Nc1ccc2c(c1)/C(=C(/Nc1ccc(CN3CCCCC3)cc1)c1ccccc1)C(=O)N2 [HESPERADIN] )
6.60

###

- Assay text: Half life in fasted mouse at 5 mg/kg administered as single dose by orogastric gavage by LC-MS/MS analysis
- Type: ADME, organism-based
- Assay context: in vivo, po
Result type: half-life

Any idea what half-life was measured for Cc1csc(-c2nnc(Nc3ccc(Oc4ncccc4-c4ccnc(N)n4)cc3)c3ccccc23)c1 [AMG-900] ?
0.6 to 2.4 h

###

- Experimental target: Aurora kinase B (Homo sapiens, UniProt Q96GD4)
- Sequence (Q96GD4 whole entry): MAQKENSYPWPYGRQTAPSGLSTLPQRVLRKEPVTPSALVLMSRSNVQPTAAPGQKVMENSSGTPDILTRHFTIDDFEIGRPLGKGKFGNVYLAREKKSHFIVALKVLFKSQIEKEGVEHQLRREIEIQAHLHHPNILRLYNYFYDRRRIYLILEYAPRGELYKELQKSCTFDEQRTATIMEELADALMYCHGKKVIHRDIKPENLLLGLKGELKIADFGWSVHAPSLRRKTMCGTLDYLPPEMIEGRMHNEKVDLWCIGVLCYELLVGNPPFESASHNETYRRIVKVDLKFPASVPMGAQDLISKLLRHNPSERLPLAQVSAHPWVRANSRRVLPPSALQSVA
- Assay text: Inhibition of full-length His-tagged recombinant aurora B (unknown origin) expressed in insect cells using biotinylated LRRWSLG substrate by scintillation proximity assay
Result type: pIC50
Scale: negative log10 of molar concentration, which is what pIC50 denotes.

Looking for the measured pIC50 of CC(=O)NCC(=O)N1[C@@H]2CC[C@H]1c1ccc(Nc3ncc(C(F)(F)F)c(NC4CCC4)n3)cc12 [PF-03814735] , can you help?
8.30

###

- Assay text: Growth inhibition of in human MIP101 cells incubated for 72 hrs
- Assay type: functional, cell-based
Result type: IC50
Note to self: number, then unit, no commentary.

Reported IC50, molecule `COc1cc2c(Nc3ccc(NC(=O)c4ccccc4)cc3)ncnc2cc1OCCCN1CCOCC1` : ____
3000 nM

###

- Assay text: Half life in fasted dog at 2 mg/kg administered as single dose by orogastric gavage by LC-MS/MS analysis
- Assay type: ADME, organism-based, Canis lupus familiaris
- Assay context: in vivo, po
Result type: half-life

State the recorded half-life for this entry: `Cc1csc(-c2nnc(Nc3ccc(Oc4ncccc4-c4ccnc(N)n4)cc3)c3ccccc23)c1`
0.6 to 2.4 h

###

- Assay text: Oral bioavailability in fasted monkey at 2 mg/kg administered as single dose by orogastric gavage by LC-MS/MS analysis
- Type: ADME, organism-based, Macaca mulatta
- Assay context: rhesus monkey, in vivo
Result type: bioavailability

Reported bioavailability for Cc1csc(-c2nnc(Nc3ccc(Oc4ncccc4-c4ccnc(N)n4)cc3)c3ccccc23)c1 [AMG-900] : what is it?
31 to 107%

###

- Assay text: Oral bioavailability in fasted rat at 5 mg/kg administered as single dose by orogastric gavage by LC-MS/MS analysis
- Assay type: ADME, organism-based
- Assay context: in vivo
Result type: bioavailability

bioavailability for `Cc1csc(-c2nnc(Nc3ccc(Oc4ncccc4-c4ccnc(N)n4)cc3)c3ccccc23)c1` ?
31 to 107%
